# system-name: 6His-Tev-LRRK2 (1326-2527) (Homo sapiens, UniProt Q5S007)
# Construct: A LRRK2 cDNA encoding residues 1326-2527 was received from Dundee University; made in house; host or cells: Spodoptera frugiperda (Sf9) insect cells, baculovirus
# protocol-text: LRRK2 AlphaScreen protein substrate assay
# Format: biochemical
# condition-label: GST-PS-Moesin (400-577) substrate, ATP at Km; read-out: pIC50 in the LRRK2 alphascreen protein substrate assay (converted)

{"chem-smiles": "COc1cccc(COc2ccc(Br)cc2C(=O)Nc2cccnc2)c1", "IC50": "≤ 7940 nM"}
{"chem-smiles": "O=C(Nc1ccccn1)c1cc(Br)ccc1OCc1ccccc1", "IC50": "> 25100 nM"}
{"chem-smiles": "CC(C)c1ccc(OCc2ccccc2)c(C(=O)Nc2cccnc2)c1", "IC50": "≤ 100 nM"}
{"chem-smiles": "N#Cc1ccccc1COc1ccc(Br)cc1C(=O)Nc1cccnc1", "IC50": "≤ 7940 nM"}
{"chem-smiles": "O=C(Nc1cccnc1)c1cc(Br)ccc1OCc1cccc(Cl)c1", "IC50": "≤ 100 nM"}
{"chem-smiles": "O=C(Nc1cccnc1)c1cc(Br)ccc1OCc1ccc(Cl)cc1", "IC50": "≤ 100 nM"}
{"chem-smiles": "COc1ccccc1COc1ccc(Br)cc1C(=O)Nc1cccnc1", "IC50": "≤ 7940 nM"}
{"chem-smiles": "O=C(O)Cc1cccc(NC(=O)c2cc(Cl)ccc2OCc2ccccc2)c1", "IC50": "≤ 7940 nM"}
{"chem-smiles": "O=C(Nc1cccnc1)c1cc(O)ccc1OCc1ccccc1", "IC50": "≤ 100 nM"}
{"chem-smiles": "CCc1cccc(NC(=O)c2cc(Br)ccc2OCc2ccccc2)c1", "IC50": "≤ 7940 nM"}
{"chem-smiles": "O=C(Nc1cccnc1)c1cc(N2CCCCC2)ccc1OCc1ccccc1", "IC50": "≤ 100 nM"}
{"chem-smiles": "N#Cc1ccc(OCc2ccccc2)c(C(=O)Nc2cccnc2)c1", "IC50": "≤ 100 nM"}
{"chem-smiles": "O=C(Nc1cccnc1)c1cc(Br)ccc1OCc1ccccc1", "IC50": "≤ 100 nM"}
{"chem-smiles": "CN1CCN(c2ccc(OCc3ccccc3)c(C(=O)Nc3cccnc3)c2)CC1", "IC50": "≤ 100 nM"}
{"chem-smiles": "CN1CCC(Oc2ccc(OCc3ccccc3)c(C(=O)Nc3cccnc3)c2)CC1", "IC50": "≤ 100 nM"}
{"chem-smiles": "N#Cc1cccc(COc2ccc(Br)cc2C(=O)Nc2cccnc2)c1", "IC50": "≤ 100 nM"}
{"chem-smiles": "CNC(=O)c1cccc(NC(=O)c2cc(Br)ccc2OCc2ccccc2)c1", "IC50": "≤ 7940 nM"}
{"chem-smiles": "CN(C)CCOc1ccc(OCc2ccccc2)c(C(=O)Nc2cccnc2)c1", "IC50": "≤ 100 nM"}

###

# system-name: 6His-Tev-LRRK2 (1326-2527) (Homo sapiens, UniProt Q5S007)
# Construct: A LRRK2 cDNA encoding residues 1326-2527 was received from Dundee University; made in house; host or cells: Spodoptera frugiperda (Sf9) insect cells, baculovirus
# protocol-text: LRRK2 AlphaScreen desensitised protein substrate assay
# Assay type: biochemical
# condition-label: mean pIC50; GST-PS-Moesin (400-577) substrate, 2 mM ATP (excess of ATP present); read-out: LRRK2 alphascreen desensitised protein substrate assay (pIC50) (converted)
Entries and their measured IC50 follow.
quantity: IC50 (µM)

{"chem-smiles": "O=C(Nc1cccnc1)c1cc(CN2CCOCC2)ccc1OCc1ccc(F)cc1", "reported-measurement": 0.794}
{"chem-smiles": "O=C(Nc1cccnc1)c1cc(-c2cnn(CCN3CCOCC3)c2)ccc1OCc1ccc(F)cc1", "reported-measurement": 0.126}
{"chem-smiles": "O=C(Nc1cccnc1)c1cc(CCCN2CCOCC2)ccc1OCc1ccc(F)cc1", "reported-measurement": 0.398}
{"chem-smiles": "O=C(Nc1cccnc1F)c1cc(C(=O)N2CCOCC2)ccc1OCc1ccc(F)cc1", "reported-measurement": 2.51}

###

In this section, each of the compounds is paired with its reported IC50.
# system-name: 6His-Tev-LRRK2 (1326-2527) (Homo sapiens)
# Construct: A LRRK2 cDNA encoding residues 1326-2527 was received from Dundee University; made in house; host or cells: Spodoptera frugiperda (Sf9) insect cells, baculovirus
# Sequence (Q5S007 1326-2527): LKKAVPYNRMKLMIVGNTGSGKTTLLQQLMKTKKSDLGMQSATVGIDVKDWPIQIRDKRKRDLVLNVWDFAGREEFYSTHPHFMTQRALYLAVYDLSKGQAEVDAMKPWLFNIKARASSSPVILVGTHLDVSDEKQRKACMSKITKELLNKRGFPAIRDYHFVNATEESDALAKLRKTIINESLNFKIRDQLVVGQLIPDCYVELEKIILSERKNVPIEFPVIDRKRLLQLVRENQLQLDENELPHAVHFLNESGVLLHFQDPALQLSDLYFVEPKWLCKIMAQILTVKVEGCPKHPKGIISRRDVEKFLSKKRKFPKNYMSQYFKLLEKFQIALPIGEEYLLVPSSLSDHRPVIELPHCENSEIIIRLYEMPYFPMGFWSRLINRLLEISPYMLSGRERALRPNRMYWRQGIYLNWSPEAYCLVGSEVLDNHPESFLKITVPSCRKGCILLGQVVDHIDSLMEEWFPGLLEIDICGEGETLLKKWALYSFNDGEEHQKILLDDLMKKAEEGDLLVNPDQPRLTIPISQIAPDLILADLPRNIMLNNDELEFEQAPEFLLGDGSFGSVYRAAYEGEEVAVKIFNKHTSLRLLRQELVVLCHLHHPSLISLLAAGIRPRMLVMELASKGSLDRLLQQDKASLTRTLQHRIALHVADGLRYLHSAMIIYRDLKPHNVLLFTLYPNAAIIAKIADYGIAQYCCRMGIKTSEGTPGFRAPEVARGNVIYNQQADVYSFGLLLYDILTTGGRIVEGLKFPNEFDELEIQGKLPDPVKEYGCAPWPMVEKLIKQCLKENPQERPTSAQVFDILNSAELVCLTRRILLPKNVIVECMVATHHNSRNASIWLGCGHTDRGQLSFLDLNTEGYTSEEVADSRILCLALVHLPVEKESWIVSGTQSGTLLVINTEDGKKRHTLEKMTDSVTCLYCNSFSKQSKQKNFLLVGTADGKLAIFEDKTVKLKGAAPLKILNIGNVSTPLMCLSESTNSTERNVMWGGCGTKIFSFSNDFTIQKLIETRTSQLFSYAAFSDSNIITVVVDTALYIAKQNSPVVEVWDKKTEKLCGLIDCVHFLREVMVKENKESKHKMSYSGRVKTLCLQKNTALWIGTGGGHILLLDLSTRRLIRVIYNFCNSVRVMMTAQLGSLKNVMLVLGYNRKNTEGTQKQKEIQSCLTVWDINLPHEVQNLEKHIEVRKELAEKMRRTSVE
# protocol-text: LRRK2 peptide substrate assay
# Assay type: biochemical
# condition-label: Biotin-LRRKtide peptide substrate, ATP at Km; read-out: pIC50 in the LRRK2 peptide substrate assay (converted)

{"compound": "CN(C)CCOc1ccc(OCc2ccccc2)c(C(=O)Nc2cccnc2)c1 [Example 30]", "IC50": "≤ 100 nM"}
{"compound": "O=C(O)CCc1ccc(OCc2ccccc2)c(C(=O)Nc2cccnc2)c1 [Example 88]", "IC50": "≤ 100 nM"}
{"compound": "O=C(Nc1cccnc1)c1cc(OC[C@@H]2CCCN2)ccc1OCc1ccccc1 [Example 46]", "IC50": "≤ 100 nM"}
{"compound": "C[C@@H]1CN(c2ccc(OCc3ccccc3)c(C(=O)Nc3cccnc3)c2)C[C@H](C)N1C [Example 103]", "IC50": "≤ 10 nM"}
{"compound": "O=C(Nc1cncc(F)c1)c1cc(Br)ccc1OCc1ccccc1 [Example 98]", "IC50": "≤ 100 nM"}
{"compound": "COCCn1cc(-c2ccc(OCc3ccc(F)cc3)c(C(=O)Nc3cccnc3)c2)cn1 [Example 130]", "IC50": "≤ 10 nM"}
{"compound": "O=C(Nc1cccnc1)c1cc(N2CCCCC2)ccc1OCc1ccccc1 [Example 33]", "IC50": "≤ 100 nM"}
{"compound": "O=C(Nc1cccnc1)c1cc(Br)ccc1OCc1cccc(F)c1 [Example 57]", "IC50": "≤ 100 nM"}
{"compound": "O=C(Nc1cccnc1)c1cc(CCCN2CCOCC2)ccc1OCc1ccc(F)cc1 [Example 136]", "IC50": "≤ 100 nM"}
{"compound": "O=C(Nc1cnoc1)c1cc(-c2ccncc2)ccc1OCc1ccccc1 [Example 63]", "IC50": "≤ 100 nM"}
{"compound": "O=C(Nc1cccnc1F)c1cc(C(=O)N2CCOCC2)ccc1OCc1ccc(F)cc1 [Example 123]", "IC50": "≤ 100 nM"}
{"compound": "O=C(Nc1cn[nH]c1)c1cc(Br)ccc1OCc1ccccc1 [Example 51]", "IC50": "≤ 100 nM"}
{"compound": "Cn1cc(-c2ccc(OCc3ccc(F)c(F)c3)c(C(=O)Nc3cccnc3)c2)cn1 [Example 110]", "IC50": "≤ 100 nM"}
{"compound": "Cn1cc(-c2ccc(OCc3ccc(F)cc3)c(C(=O)Nc3ccnnc3)c2)cn1 [Example 94]", "IC50": "≤ 100 nM"}
{"compound": "O=C(Nc1ccnnc1)c1cc(-c2ccncc2)ccc1OCc1ccc(F)cc1 [Example 89]", "IC50": "≤ 10 nM"}
{"compound": "O=C(Nc1cccnc1)c1cc(Br)ccc1OCc1ccc(Cl)cc1 [Example 9]", "IC50": "≤ 100 nM"}
{"compound": "O=C(Nc1cccnc1)c1cc(CN2CCOCC2)ccc1OCc1ccc(F)c(F)c1 [Example 112]", "IC50": "≤ 100 nM"}
{"compound": "CCOC(=O)CCc1ccc(OCc2ccccc2)c(C(=O)Nc2cccnc2)c1 [Example 87]", "IC50": "≤ 10 nM"}
